# target: Muscarinic acetylcholine receptor M4 (Homo sapiens, UniProt P08173)
# Sequence (P08173 whole entry): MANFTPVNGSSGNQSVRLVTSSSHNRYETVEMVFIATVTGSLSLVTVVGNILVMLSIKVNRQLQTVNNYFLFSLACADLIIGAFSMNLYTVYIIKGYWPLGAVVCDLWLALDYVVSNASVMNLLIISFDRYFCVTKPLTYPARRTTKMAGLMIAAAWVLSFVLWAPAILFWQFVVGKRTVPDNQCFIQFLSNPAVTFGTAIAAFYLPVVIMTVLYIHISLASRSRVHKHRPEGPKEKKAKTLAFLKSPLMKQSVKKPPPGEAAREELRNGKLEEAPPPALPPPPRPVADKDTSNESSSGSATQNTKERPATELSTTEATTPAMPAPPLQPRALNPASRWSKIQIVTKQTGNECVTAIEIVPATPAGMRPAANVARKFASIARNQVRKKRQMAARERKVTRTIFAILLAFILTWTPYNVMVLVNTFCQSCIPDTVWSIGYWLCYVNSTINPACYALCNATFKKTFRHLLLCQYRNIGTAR
# procedure.text: Positive allosteric modulation activity at human M4 receptor expressed in CHO cells co-expressing Gqi5 protein assessed as potentiation of EC20 acetyl choline-induced response by calcium mobilization assay
# Type: functional, cell-based
# condition.parameters: read-out: EC50
# pEC50 values compiled below
The value called pEC50 is obtained by taking minus log10 of the concentration in mol/L.

Examples from the recorded data:
Cc1cc(C)c2c(N)c(C(=O)CCc3ccncc3)sc2n1	6.32
Cc1nnc2sc(C(=O)c3ccncc3)c(N)c2c1C	6.05
Cc1nc2sc(C(=O)c3cccnc3)c(N)c2c(C)c1Cl	6.98
Cc1nnc2sc(C(=O)c3cccnc3)c(N)c2c1C	6.98

pEC50 measured on COc1ccc(C(=O)c2sc3nc(C)cc(C)c3c2N)cc1 = 6.32

Record Cc1nnc2sc(C(=O)c3ccccc3)c(N)c2c1C . Reported pEC50: 6.99

Consider Cc1cc(C)c2c(N)c(C(=O)c3ccc(O)cc3)sc2n1 . Its measured pEC50 is 6.45

Input COc1ccc(C(=O)c2sc3nnc(C)c(C)c3c2N)cc1 . Output pEC50: 6.19

###

# procedure.text: Ratio of drug level in Sprague-Dawley rat brain to plasma at 0.2 to 0.25 mg/kg, iv administered as cassette dose measured 0.25 hrs post dose
# Type: ADME, organism-based
# condition.parameters: brain and plasma
measured.endpoint: Kp at 0.25 h

COc1ccc(C(=O)c2sc3nc(C)cc(C)c3c2N)cc1	0.83 to 6.95
Cc1nc2sc(C(=O)c3cccnc3)c(N)c2c(C)c1Cl	0.83 to 6.95

The record that follows has no Kp at 0.25 h shown yet.
The compound identified as Nc1c(C(=O)c2ccncc2)sc2nc(O)c3c(c12)CCCC3 registered its Kp at 0.25 h at 0.83 to 6.95

###

# target: UniProt:P08173
# procedure.text: Positive allosteric modulation activity at human M4 receptor expressed in CHO cells co-expressing Gqi5 protein assessed as potentiation of EC20 acetyl choline-induced response by calcium mobilization assay
# Format: functional, cell-based
# condition.parameters: read-out: EC50
measured.endpoint: EC50 (nM)
Hi! Could you send only the number? It should be in nM, unit omitted.

Nc1c(C(=O)c2ccncc2)sc2nc(OCc3ccncc3)c3c(c12)CCC3	295
Cc1cc(C)c2c(N)c(C(=O)c3ccccc3)sc2n1	891
Cc1cc(C)c2c(N)c(C(=O)c3ccc(F)cc3F)sc2n1	562

Memo: Cc1nnc2sc(C(=O)c3ccc(F)cc3F)c(N)c2c1C , reported EC50: 331

For record Cc1cc(C)c2c(N)c(C(=O)c3ccncc3)sc2n1 the listed EC50 is 589

Per the record, Cc1nc2sc(C(=O)c3ccccc3)c(N)c2c(C)c1Cl has EC50 of 372

Looking up COc1ccc(CCC(=O)c2sc3nnc(C)c(C)c3c2N)cc1F , I see its EC50 listed as 380

Reported EC50 of Nc1c(C(=O)c2ccncc2)sc2nc(O)c3c(c12)CCCC3 : 37

response.value for Nc1c(C(=O)c2ccncc2)sc2nc(OCCN3CCOCC3)c3c(c12)CCC3 (field: EC50) = 76

// sample Cc1cc(C)c2c(N)c(C(=O)c3ccc(F)c(Cl)c3)sc2n1 , its EC50 was 240

###

Recorded %max values for a group of compounds are listed next.
# target: Muscarinic acetylcholine receptor M4 (Rattus norvegicus)
# procedure.text: Positive allosteric modulation activity at rat M4 receptor expressed in CHO cells co-expressing Gqi5 protein assessed as potentiation of EC20 acetyl choline-induced response by calcium mobilization assay relative to acetylcholine
# Assay type: functional, cell-based
Express it in %; write the number only.

Consider the following illustrative entries.
Cc1cc(C)c2c(N)c(C(=O)c3ccc(F)c(Cl)c3)sc2n1	41
Cc1cc(C)c2c(N)c(C(=O)c3ccc(F)cc3F)sc2n1	35
Cc1nnc2sc(C(=O)c3ccccc3)c(N)c2c1C	67
Nc1c(C(=O)c2ccncc2)sc2nc(O)c3c(c12)CCCC3	52.7
COc1ccc(C(=O)c2sc3nnc(C)c(C)c3c2N)cc1	70

// %max value for Cc1nnc2sc(C(=O)c3ccc(F)cc3F)c(N)c2c1C : 66

Record Cc1nc2sc(C(=O)c3cccnc3)c(N)c2c(C)c1Cl . Reported %max: 95

// %max value for Cc1cc(C)c2c(N)c(C(=O)c3ccccc3)sc2n1 : 46

// %max value for Cc1nnc2sc(C(=O)c3ccncc3)c(N)c2c1C : 68

Form: compound = COc1ccc(CCC(=O)c2sc3nnc(C)c(C)c3c2N)cc1F ; %max = 77.2

Consider Cc1cc(C)c2c(N)c(C(=O)c3ccncc3)sc2n1 . Its measured %max is 64

Record summary for Cc1nc2sc(C(=O)c3ccccc3)c(N)c2c(C)c1Cl : reported %max = 43

Given item COc1ccc(C(=O)c2sc3nc(C)cc(C)c3c2N)cc1 , the value recorded as its %max is 54

###

# target: Muscarinic acetylcholine receptor M4 (Rattus norvegicus, UniProt P08485)
# Sequence (P08485 whole entry): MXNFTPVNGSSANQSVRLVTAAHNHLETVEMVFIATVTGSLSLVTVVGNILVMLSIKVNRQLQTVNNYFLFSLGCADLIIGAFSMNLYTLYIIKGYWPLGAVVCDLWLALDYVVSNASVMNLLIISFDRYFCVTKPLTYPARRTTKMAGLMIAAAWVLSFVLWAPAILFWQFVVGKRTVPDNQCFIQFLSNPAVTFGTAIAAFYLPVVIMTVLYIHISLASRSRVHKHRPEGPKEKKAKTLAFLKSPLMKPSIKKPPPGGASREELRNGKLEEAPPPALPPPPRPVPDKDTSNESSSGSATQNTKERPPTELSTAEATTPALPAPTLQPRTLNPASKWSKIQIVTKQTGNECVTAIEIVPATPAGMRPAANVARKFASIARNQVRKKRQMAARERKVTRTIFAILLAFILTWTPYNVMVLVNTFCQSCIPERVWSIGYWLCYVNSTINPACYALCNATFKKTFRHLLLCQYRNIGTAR
# procedure.text: Positive allosteric modulation activity at rat M4 receptor expressed in CHO cells co-expressing Gqi5 protein assessed as potentiation of EC20 acetyl choline-induced response by calcium mobilization assay
# Type: functional, cell-based
# condition.parameters: read-out: EC50
Each entry below carries its recorded EC50.
Supply the numeric figure in µM, leaving out any unit text.

Example cases with answers are listed next.
Cc1nnc2sc(C(=O)c3ccncc3)c(N)c2c1C	3.55
COc1ccc(C(=O)c2sc3nnc(C)c(C)c3c2N)cc1	1.45
Cc1cc(C)c2c(N)c(C(=O)c3ccncc3)sc2n1	2.24
COc1ccc(CCC(=O)c2sc3nnc(C)c(C)c3c2N)cc1F	0.254
COc1ccc(C(=O)c2sc3nc(C)cc(C)c3c2N)cc1	0.49
Cc1nnc2sc(C(=O)c3cccnc3)c(N)c2c1C	0.417
Cc1cc(C)c2c(N)c(C(=O)c3ccc(F)c(Cl)c3)sc2n1	0.195
Nc1c(C(=O)c2ccncc2)sc2nc(O)c3c(c12)CCCC3	0.182

Entry Nc1c(C(=O)c2ccncc2)sc2nc(OCCN3CCOCC3)c3c(c12)CCC3 ; EC50 = 0.417

So, Cc1cc(C)c2c(N)c(C(=O)c3ccc(F)cc3F)sc2n1 ? Its EC50 was 3.98

Noted for Cc1nc2sc(C(=O)c3ccccc3)c(N)c2c(C)c1Cl : its EC50 reads 0.692

###

# target: Muscarinic acetylcholine receptor M4 (Rattus norvegicus)
# procedure.text: Positive allosteric modulation activity at rat M4 receptor expressed in CHO cells co-expressing Gqi5 protein assessed as potentiation of EC20 acetyl choline-induced response by calcium mobilization assay
# Format: functional, cell-based
# condition.parameters: read-out: EC50
A collection of compounds and their measured EC50
Express it in nM; write the number only.

Cc1nnc2sc(C(=O)c3ccccc3)c(N)c2c1C	166
Cc1cc(C)c2c(N)c(C(=O)c3ccccc3)sc2n1	1500

Lab note: measured EC50 of Cc1nnc2sc(C(=O)c3ccc(F)cc3F)c(N)c2c1C was 380

Briefly, EC50 measured for Cc1cc(C)c2c(N)c(C(=O)CCc3ccncc3)sc2n1 : 540

###

# target: Cytochrome P450 1A2 (Homo sapiens)
# Sequence (P05177 whole entry): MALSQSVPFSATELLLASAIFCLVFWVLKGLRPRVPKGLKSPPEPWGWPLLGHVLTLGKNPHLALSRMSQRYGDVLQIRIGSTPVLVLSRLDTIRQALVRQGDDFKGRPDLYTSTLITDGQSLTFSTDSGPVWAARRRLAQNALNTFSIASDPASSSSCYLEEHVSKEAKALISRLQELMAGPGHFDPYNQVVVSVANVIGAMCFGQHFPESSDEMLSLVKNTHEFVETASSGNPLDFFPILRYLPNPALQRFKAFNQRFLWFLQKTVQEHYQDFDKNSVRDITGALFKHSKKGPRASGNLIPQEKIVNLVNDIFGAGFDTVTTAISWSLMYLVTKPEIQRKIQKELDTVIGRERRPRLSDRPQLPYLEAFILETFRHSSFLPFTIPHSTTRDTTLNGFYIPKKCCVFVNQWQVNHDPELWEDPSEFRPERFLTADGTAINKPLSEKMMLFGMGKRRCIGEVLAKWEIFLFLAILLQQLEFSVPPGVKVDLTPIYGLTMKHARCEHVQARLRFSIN
# procedure.text: Inhibition of CYP1A2 (unknown origin)
# Format: ADME
measured.endpoint: inhibition (INH)

COc1ccc(C(=O)c2sc3nnc(C)c(C)c3c2N)cc1	Active
Cc1cc(C)c2c(N)c(C(=O)c3ccc(O)cc3)sc2n1	Active
Nc1c(C(=O)c2ccncc2)sc2nc(O)c3c(c12)CCCC3	Active
Cc1nnc2sc(C(=O)c3ccncc3)c(N)c2c1C	Active

###

# procedure.text: Intrinsic clearance in rat microsomes
# Format: ADME, Microsome
measured.endpoint: CLint scaled (mL/min/kg)
Just the number please, in mL/min/kg, no unit attached.

Value of measured CLint scaled for the entry Cc1nc2sc(C(=O)c3ccccc3)c(N)c2c(C)c1C : 2070
